Data export: AC50 values recorded with Glutamate receptor ionotropic, NMDA 1 (Rattus norvegicus).

{"columns": ["molecule", "AC50"],
 "data": [
  ["Clc1ccc(CCC(Cn2ccnc2)Sc2c(Cl)cccc2Cl)cc1 (stereo not drawn) [BUTOCONAZOLE]", "> 30 µM"],
  ["O=C(CCCN1CCC(O)(c2ccc(Br)cc2)CC1)c1ccc(F)cc1 [BROMPERIDOL]", "> 30 µM"],
  ["Oc1cc(O)c(Cl)cn1", "> 30 µM"]
]}

* * *

Each item that follows carries a reported AC50.
Target: Histamine H2 receptor (Homo sapiens); note: assay procedure not described here
Sequence (P25021 whole entry): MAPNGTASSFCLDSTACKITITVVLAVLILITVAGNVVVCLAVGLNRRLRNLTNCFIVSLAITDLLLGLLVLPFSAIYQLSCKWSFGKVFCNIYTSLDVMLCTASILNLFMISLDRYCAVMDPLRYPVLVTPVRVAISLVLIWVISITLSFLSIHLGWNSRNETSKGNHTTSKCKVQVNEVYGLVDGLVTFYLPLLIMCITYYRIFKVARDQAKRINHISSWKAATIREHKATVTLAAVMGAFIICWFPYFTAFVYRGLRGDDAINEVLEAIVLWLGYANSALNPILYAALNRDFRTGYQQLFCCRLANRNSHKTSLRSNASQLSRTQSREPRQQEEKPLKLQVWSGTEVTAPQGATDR
Format: functional, cell-based
Where a SMILES comes first, the peptide text is derived from it. [ ]: non-standard residue; d: D form. pGlu = O=C1CC[C@@H](C(=O)O)N1; Thz = O=C(O)[C@@H]1CSCN1
endpointName: AC50

{"columns": ["compound", "systemName", "endpointName", "reportedResult"],
 "data": [
  ["COc1cc(C(=O)NC2CCCNC2)cc(OC)c1OC (centres undefined) [TROXIPIDE]", "Histamine H2 receptor (Homo sapiens)", "AC50", "> 30 µM"],
  ["CCN1CC(CCN2CCOCC2)C(c2ccccc2)(c2ccccc2)C1=O (centres undefined) [DOXAPRAM]", "Histamine H2 receptor (Homo sapiens)", "AC50", "> 30 µM"],
  ["CC(C(=O)O)c1ccc2oc(-c3ccc(Cl)cc3)nc2c1 (centres undefined) [BENOXAPROFEN]", "Histamine H2 receptor (Homo sapiens)", "AC50", "> 30 µM"],
  ["Cc1ccccc1-n1c(CF)nc2ccc(N)cc2c1=O [AFLOQUALONE]", "Histamine H2 receptor (Homo sapiens)", "AC50", "> 30 µM"],
  ["O=C1CC[C@@H](C(=O)N2CSC[C@H]2C(=O)O)N1 [PIDOTIMOD] ([pGlu]-[Thz]-OH)", "Histamine H2 receptor (Homo sapiens)", "AC50", "> 30 µM"],
  ["CCCc1cc(=O)[nH]c(=S)[nH]1 [PROPYLTHIOURACIL]", "Histamine H2 receptor (Homo sapiens)", "AC50", "> 10 µM"],
  ["Oc1ccc(CCNCCCCCCNCCc2ccccc2)cc1O [DOPEXAMINE]", "Histamine H2 receptor (Homo sapiens)", "AC50", "> 30 µM"],
  ["O=C1c2ccccc2C(=O)C1c1ccccc1 [PHENINDIONE]", "Histamine H2 receptor (Homo sapiens)", "AC50", "> 10 µM"],
  ["CNCCc1ccc(OC(=O)C(C)C)c(OC(=O)C(C)C)c1 [IBOPAMINE]", "Histamine H2 receptor (Homo sapiens)", "AC50", "> 30 µM"],
  ["O=C(NCCO[N+](=O)[O-])c1cccnc1 [NICORANDIL]", "Histamine H2 receptor (Homo sapiens)", "AC50", "> 30 µM"],
  ["COC(=O)C1=C(C)NC(C)=C(C(=O)OCCN2CCN(C(c3ccccc3)c3ccccc3)CC2)C1c1cccc([N+](=O)[O-])c1 (centres undefined) [MANIDIPINE 6300]", "Histamine H2 receptor (Homo sapiens)", "AC50", "> 30 µM"],
  ["C[C@@H]1C[C@H]2[C@@H]3C[C@H](F)C4=CC(=O)C=C[C@]4(C)[C@@]3(F)[C@@H](O)C[C@]2(C)[C@@]1(OC(=O)c1ccco1)C(=O)SCF [FLUTICASONE FUROATE]", "Histamine H2 receptor (Homo sapiens)", "AC50", "> 10 µM"],
  ["CC1=C(C(=O)OC(C)C)C(c2cccc([N+](=O)[O-])c2)C(C(=O)OC2CN(C(c3ccccc3)c3ccccc3)C2)=C(N)N1 (centres undefined) [AZELNIDIPINE]", "Histamine H2 receptor (Homo sapiens)", "AC50", "> 30 µM"],
  ["CCOc1nc2cccc(C(=O)O)c2n1Cc1ccc(-c2ccccc2-c2nnn[nH]2)cc1", "Histamine H2 receptor (Homo sapiens)", "AC50", "> 10 µM"],
  ["CCCCCCCN(CC)CCCC(O)c1ccc(NS(C)(=O)=O)cc1 (centres undefined) [IBUTILIDE]", "Histamine H2 receptor (Homo sapiens)", "AC50", "> 30 µM"],
  ["COc1cc(C(=O)OCc2cccc(COC(=O)c3cc(OC)c(OC)c(OC)c3)n2)cc(OC)c1OC [PIROZADIL]", "Histamine H2 receptor (Homo sapiens)", "AC50", "> 30 µM"],
  ["CC(C)(Oc1ccc(CCNC(=O)c2ccc(Cl)cc2)cc1)C(=O)O [BEZAFIBRATE]", "Histamine H2 receptor (Homo sapiens)", "AC50", "> 10 µM"],
  ["O=C(O)Cc1ccccc1Oc1ccc(Cl)cc1Cl [FENCLOFENAC]", "Histamine H2 receptor (Homo sapiens)", "AC50", "> 10 µM"],
  ["CCOC(=O)c1ccc(N)cc1 [BENZOCAINE]", "Histamine H2 receptor (Homo sapiens)", "AC50", "> 10 µM"]
]}

* * *

Each item that follows carries a reported AC50.
Molecular target: UniProt:P21397
Sequence (P21397 whole entry): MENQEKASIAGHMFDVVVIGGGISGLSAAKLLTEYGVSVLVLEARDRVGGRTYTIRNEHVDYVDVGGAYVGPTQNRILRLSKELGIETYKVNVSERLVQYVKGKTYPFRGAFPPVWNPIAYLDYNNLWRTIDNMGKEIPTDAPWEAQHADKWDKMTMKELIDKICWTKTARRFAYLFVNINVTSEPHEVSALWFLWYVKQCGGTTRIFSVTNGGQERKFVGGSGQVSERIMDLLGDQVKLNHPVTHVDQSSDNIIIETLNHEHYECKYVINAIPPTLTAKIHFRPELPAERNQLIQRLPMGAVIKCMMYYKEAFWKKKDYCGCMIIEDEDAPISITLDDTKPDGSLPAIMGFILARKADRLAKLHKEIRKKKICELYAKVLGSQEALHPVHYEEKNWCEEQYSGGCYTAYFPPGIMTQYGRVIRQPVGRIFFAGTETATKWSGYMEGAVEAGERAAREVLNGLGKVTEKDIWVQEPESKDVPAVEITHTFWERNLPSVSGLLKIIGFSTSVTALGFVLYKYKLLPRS
Format: functional
Where a SMILES comes first, the peptide text is derived from it. [ ]: non-standard residue; d: D form. pGlu = O=C1CC[C@@H](C(=O)O)N1; Thz = O=C(O)[C@@H]1CSCN1

{"columns": ["compound", "systemName", "AC50"],
 "data": [
  ["CCOC(=O)c1c(CSc2ccccc2)n(C)c2cc(Br)c(O)c(CN(C)C)c12", "UniProt:P21397", "> 30 µM"],
  ["O=C(O)CCNC(=O)c1ccc(/N=N/c2ccc(O)c(C(=O)O)c2)cc1 [BALSALAZIDE]", "UniProt:P21397", "> 30 µM"],
  ["CC1=C(C(=O)OC(C)C)C(c2cccc([N+](=O)[O-])c2)C(C(=O)OC2CN(C(c3ccccc3)c3ccccc3)C2)=C(N)N1 (stereo not drawn)", "UniProt:P21397", "> 30 µM"],
  ["CCN1CC(CCN2CCOCC2)C(c2ccccc2)(c2ccccc2)C1=O (stereo not drawn)", "UniProt:P21397", "> 30 µM"],
  ["CNC(=C[N+](=O)[O-])NCCSCc1csc(CN(C)C)n1", "UniProt:P21397", "> 10 µM"],
  ["CC(C)[C@@H](C)/C=C/[C@@H](C)[C@H]1CC[C@H]2/C(=C/C=C3\\C[C@@H](O)CC[C@@H]3C)CCC[C@]12C [DIHYDROTACHYSTEROL]", "UniProt:P21397", "> 10 µM"],
  ["Cc1ccccc1-n1c(CF)nc2ccc(N)cc2c1=O", "UniProt:P21397", "> 10 µM"],
  ["CC(=O)Nc1ccc(CC(=O)O)cc1", "UniProt:P21397", "> 30 µM"],
  ["CCOC(=O)c1ccc(C#Cc2ccc3c(c2)C(C)(C)CCS3)nc1", "UniProt:P21397", "> 10 µM"],
  ["Cc1ccccc1N1C(=O)c2cc(S(N)(=O)=O)c(Cl)cc2NC1C (stereo not drawn)", "UniProt:P21397", "> 10 µM"],
  ["CCCC(C)(COC(N)=O)COC(N)=O [MEPROBAMATE]", "UniProt:P21397", "> 30 µM"],
  ["CC(C)Cc1ccc([C@H](C)C(=O)O)cc1", "UniProt:P21397", "> 30 µM"],
  ["C[N+]12CCC(CC1)C(OC(=O)C(O)(c1ccccc1)c1ccccc1)C2 (stereo not drawn)", "UniProt:P21397", "> 30 µM"],
  ["NNC(=O)c1ccncc1", "UniProt:P21397", "> 30 µM"],
  ["C[C@]12C=CC(=O)C=C1CC[C@@H]1[C@@H]2CC[C@]2(C)OC(=O)CC[C@@H]12", "UniProt:P21397", "> 10 µM"],
  ["CCOc1nc2cccc(C(=O)O)c2n1Cc1ccc(-c2ccccc2-c2nnn[nH]2)cc1", "UniProt:P21397", "> 30 µM"],
  ["S=P(N1CC1)(N1CC1)N1CC1", "UniProt:P21397", "> 30 µM"],
  ["O=C1CC[C@@H](C(=O)N2CSC[C@H]2C(=O)O)N1 [PIDOTIMOD] ([pGlu]-[Thz]-OH)", "UniProt:P21397", "> 30 µM"]
]}

* * *

Data export: AC50 values recorded with UniProtKB P41968.
Sequence (P41968 whole entry): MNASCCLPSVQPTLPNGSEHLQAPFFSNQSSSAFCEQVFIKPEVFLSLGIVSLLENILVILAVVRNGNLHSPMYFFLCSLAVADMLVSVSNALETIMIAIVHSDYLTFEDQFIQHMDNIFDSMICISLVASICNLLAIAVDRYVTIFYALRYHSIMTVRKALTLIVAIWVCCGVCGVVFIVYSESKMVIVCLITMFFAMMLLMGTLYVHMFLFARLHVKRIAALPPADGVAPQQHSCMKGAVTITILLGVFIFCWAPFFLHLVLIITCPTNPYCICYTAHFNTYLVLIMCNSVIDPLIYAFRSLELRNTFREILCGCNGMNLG

{"columns": ["compound", "AC50"],
 "data": [
  ["CC(=O)Nc1ccc(CC(=O)O)cc1 [ACTARIT]", "> 30 µM"],
  ["CN(C)Cc1nnc2n1-c1ccc(Cl)cc1C(c1ccccc1)=NC2 [ADINAZOLAM]", "> 10 µM"],
  ["O=C1c2ccccc2C(=O)C1c1ccccc1 [PHENINDIONE]", "> 10 µM"],
  ["C[N+]12CCC(CC1)C(OC(=O)C(O)(c1ccccc1)c1ccccc1)C2 (centres undefined)", "> 30 µM"]
]}
